- System: P388 leukemia ip, CD2F1 mice, survival T/C
- Protocol notes: NCI In Vivo Anticancer Drug Screen. Data for tumor model P388 Leukemia (intraperitoneal) in CD2F1 (CDF1) mice
- Recorded conditions: endpoint: median survival time; dose: 60.0 mg/kg/injection; schedule: Q01DX005 (ip); vehicle: saline with Tween-80; higher = longer survival
Inconclusive results and toxic doses are left out.
# T/C per entry

Example cases with answers are listed next.
In [3]: df
Out[3]:
                                   compound      assay_result
0  COc1ccc(/C=N/N2CN(C(CC(N)=O)C(=O)O)P(Nc3ncccn3)N=C2N)cc1OC (stereo not drawn)  104 % of control
1  CCOC(=O)C1=C(O)C2(CC(C)=C(C)CS2=O)SC1=Nc1ccccc1 (stereo not drawn)   96 % of control
2  N#CC(Cc1ccc(CC(C#N)(c2ccccc2)c2ccccn2)cc1)(c1ccccc1)c1ccccn1 (stereo not drawn)  100 % of control
3                       CCOC(=O)N(C)N=NCCCl   94 % of control
4  CSc1nc(NC2OCC(O)C(O)C2O)c(C=O)c(=O)[nH]1 (stereo not drawn)   95 % of control

Form: compound = C[Si](CCCNCCN)(O[Si](C)(CCCNCCN)c1ccccc1)c1ccccc1 (stereo not drawn) ; T/C = 100 % of control

Form: compound = COC(=O)C(C)NC(=O)C(C)NC(=O)c1cnc2ccccc2n1 (stereo not drawn) ; T/C = 97 % of control

Form: compound = Clc1ccc(N=NN2CCOC2)cc1 ; T/C = 115 % of control

Form: compound = c1ccc2c(SC3CCC4CC5CC4C3C5)nccc2c1 (stereo not drawn) ; T/C = 91 % of control

Form: compound = COc1ccc(C(c2cc3c(cc2O)OCO3)N2CCOCC2)c(OC)c1OC (stereo not drawn) ; T/C = 119 % of control

Form: compound = O=C(CC(=O)c1ccc(Cl)c(Cl)c1)Cc1ccc2ccccc2n1 ; T/C = 90 % of control

Form: compound = COc1ccc(C2CC(C)(N3CCCC3)Oc3cc4c(cc32)OCO4)cc1 (stereo not drawn) ; T/C = 101 % of control

Form: compound = Nc1nc(N)c2cc([N+](=O)[O-])ccc2n1 ; T/C = 93 % of control
